Target: Human Cav2.2 channels (Homo sapiens, UniProt Q00975)
Construct: expressed in transfected cells
Sequence (Q00975 whole entry): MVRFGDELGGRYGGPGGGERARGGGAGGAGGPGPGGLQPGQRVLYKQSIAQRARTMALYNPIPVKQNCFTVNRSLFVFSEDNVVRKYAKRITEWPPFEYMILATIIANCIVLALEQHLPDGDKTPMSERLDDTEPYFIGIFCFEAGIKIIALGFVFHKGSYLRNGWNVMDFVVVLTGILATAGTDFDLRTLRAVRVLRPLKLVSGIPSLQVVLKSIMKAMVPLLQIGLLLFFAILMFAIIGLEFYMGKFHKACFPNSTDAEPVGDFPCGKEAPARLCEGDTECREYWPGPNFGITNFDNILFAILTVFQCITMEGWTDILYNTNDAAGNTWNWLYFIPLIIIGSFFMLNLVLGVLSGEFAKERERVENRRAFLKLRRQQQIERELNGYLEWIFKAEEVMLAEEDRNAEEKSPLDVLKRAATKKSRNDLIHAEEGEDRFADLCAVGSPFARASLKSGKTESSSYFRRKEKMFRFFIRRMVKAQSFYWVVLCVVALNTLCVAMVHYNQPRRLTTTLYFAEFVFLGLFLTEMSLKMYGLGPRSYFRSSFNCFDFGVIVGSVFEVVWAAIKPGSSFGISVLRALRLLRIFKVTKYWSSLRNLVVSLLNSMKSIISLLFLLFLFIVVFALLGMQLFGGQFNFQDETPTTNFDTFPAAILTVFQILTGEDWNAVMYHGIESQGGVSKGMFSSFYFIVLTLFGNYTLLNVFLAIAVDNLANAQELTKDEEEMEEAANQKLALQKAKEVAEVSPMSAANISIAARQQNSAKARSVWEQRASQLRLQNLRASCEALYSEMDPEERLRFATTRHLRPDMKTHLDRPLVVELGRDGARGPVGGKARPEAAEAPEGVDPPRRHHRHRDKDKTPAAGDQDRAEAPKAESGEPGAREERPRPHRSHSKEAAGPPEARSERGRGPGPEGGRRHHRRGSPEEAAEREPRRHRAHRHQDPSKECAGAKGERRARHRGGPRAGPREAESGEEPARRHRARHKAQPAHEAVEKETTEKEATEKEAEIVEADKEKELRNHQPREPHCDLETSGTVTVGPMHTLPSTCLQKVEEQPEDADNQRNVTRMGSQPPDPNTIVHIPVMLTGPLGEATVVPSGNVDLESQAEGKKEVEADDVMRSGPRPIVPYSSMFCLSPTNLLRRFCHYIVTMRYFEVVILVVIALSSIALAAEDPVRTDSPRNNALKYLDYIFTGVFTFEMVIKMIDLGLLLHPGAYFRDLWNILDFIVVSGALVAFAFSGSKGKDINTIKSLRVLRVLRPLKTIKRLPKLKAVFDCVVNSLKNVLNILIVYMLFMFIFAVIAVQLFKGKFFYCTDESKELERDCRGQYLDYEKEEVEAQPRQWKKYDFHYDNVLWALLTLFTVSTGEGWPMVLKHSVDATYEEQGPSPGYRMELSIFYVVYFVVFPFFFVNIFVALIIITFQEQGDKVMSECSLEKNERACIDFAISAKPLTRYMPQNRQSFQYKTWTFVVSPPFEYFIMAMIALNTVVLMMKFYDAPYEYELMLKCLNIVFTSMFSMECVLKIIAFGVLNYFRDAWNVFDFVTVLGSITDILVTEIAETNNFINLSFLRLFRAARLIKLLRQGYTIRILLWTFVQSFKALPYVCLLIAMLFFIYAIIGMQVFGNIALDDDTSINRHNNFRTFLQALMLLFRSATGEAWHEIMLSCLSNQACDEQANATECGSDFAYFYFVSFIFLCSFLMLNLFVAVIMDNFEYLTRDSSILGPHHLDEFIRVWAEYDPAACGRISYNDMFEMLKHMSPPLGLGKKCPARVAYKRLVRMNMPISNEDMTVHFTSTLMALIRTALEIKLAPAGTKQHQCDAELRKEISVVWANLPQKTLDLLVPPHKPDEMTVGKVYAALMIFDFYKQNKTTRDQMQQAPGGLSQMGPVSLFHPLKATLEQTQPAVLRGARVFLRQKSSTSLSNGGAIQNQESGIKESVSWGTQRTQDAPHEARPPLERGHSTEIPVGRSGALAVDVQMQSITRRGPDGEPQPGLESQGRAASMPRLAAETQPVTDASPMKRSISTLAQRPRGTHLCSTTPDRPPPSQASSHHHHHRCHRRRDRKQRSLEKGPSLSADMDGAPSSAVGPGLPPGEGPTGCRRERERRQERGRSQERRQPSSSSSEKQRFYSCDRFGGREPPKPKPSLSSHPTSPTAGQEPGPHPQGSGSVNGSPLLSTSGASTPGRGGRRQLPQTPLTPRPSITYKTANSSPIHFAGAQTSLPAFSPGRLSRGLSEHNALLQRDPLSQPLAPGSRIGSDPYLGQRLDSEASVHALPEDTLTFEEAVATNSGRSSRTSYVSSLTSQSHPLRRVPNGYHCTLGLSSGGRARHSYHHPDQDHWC
Sequence (P54289 25-956 partner limits assumed): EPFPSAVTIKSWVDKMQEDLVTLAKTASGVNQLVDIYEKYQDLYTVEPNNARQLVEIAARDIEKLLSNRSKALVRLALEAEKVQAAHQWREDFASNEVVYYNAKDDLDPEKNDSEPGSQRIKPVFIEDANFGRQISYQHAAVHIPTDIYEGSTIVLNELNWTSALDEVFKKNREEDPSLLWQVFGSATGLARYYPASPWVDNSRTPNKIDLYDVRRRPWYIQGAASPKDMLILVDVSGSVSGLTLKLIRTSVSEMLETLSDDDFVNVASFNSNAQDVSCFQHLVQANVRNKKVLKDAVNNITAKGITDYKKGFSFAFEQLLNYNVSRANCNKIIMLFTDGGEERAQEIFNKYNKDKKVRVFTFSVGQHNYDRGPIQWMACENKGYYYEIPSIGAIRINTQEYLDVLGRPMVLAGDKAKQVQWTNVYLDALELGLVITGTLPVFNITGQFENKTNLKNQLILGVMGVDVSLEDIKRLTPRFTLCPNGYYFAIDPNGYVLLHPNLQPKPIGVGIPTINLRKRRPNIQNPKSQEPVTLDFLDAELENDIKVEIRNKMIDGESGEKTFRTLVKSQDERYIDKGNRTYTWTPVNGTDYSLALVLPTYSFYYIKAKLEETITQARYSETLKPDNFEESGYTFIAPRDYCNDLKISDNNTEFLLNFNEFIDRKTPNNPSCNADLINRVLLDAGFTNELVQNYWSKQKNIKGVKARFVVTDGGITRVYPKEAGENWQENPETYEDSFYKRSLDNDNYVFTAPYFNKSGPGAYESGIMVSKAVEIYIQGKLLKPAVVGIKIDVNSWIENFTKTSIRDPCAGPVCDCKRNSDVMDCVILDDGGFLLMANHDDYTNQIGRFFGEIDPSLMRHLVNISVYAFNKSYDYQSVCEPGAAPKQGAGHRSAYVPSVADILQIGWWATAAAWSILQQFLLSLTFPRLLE
Sequence (P54289 957-1103 partner limits assumed): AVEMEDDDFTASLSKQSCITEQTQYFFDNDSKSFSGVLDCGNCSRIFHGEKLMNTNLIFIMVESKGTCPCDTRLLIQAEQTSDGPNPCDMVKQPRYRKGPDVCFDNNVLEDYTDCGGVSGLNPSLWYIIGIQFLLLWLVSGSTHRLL
Sequence (P54284 whole entry partner): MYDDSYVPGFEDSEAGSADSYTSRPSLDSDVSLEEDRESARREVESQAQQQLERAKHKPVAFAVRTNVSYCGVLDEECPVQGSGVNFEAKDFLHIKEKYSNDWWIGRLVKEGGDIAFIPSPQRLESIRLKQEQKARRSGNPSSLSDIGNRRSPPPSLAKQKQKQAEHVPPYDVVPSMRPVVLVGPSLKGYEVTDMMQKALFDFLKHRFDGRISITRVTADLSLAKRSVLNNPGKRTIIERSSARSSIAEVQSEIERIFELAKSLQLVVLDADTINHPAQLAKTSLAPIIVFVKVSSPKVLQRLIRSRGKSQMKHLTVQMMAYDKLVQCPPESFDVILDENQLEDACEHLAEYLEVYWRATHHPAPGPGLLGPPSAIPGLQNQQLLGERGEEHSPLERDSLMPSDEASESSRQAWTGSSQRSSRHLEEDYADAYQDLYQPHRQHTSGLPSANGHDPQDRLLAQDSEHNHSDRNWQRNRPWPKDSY
Assay: Block of Cav2.2 (N-type) channels expressed in HEK293 cells
Assay type: cell-based
Details: HEK293; read-out: Cav 2.2 % Inh @ 30 μM
Experimental endpoint: inhibition at 30 µM (%)
Report the figure in % without appending any unit label.

{"columns": ["Cpd smiles", "Value units", "inhibition at 30 µM"],
 "data": [
  ["CC(C)(C)c1cc(N2CCN(C(=O)c3ccc(C(C)(C)C)s3)CC2)cc(C(C)(C)C)c1", "%", 59],
  ["Cc1cccc(C(=O)N2CCN(c3cc(C(C)(C)C)cc(C(C)(C)C)c3)CC2)n1", "%", 105],
  ["CC(C)(C)c1cc(N2CCN(C(=O)c3cc(S(C)(=O)=O)ccc3Cl)CC2)cc(C(C)(C)C)c1", "%", 99],
  ["CC(C)(C)c1cc(N2CCN(C(=O)c3cc4cc(C(F)(F)F)ccc4s3)CC2)cc(C(C)(C)C)c1", "%", 41],
  ["Cc1cc(C(=O)N2CCN(c3cc(C(C)(C)C)cc(C(C)(C)C)c3)CC2)c(C(F)(F)F)o1", "%", 101]
]}

Request: State the measured inhibition at 30 µM (Human Cav2.2 channels (Homo sapiens, UniProt Q00975)) of CC(C)c1ccc(C(=O)N2CCN(c3cc(C(C)(C)C)cc(C(C)(C)C)c3)CC2)cc1
Result: 97

Request: State the measured inhibition at 30 µM (Human Cav2.2 channels (Homo sapiens, UniProt Q00975)) of CC(C)(C)c1cc(N2CCN(C(=O)c3scc(S(C)(=O)=O)c3Cl)CC2)cc(C(C)(C)C)c1
Result: 95

====

Molecular target: Cav3.1 (T-type channel alpha-1G) (Homo sapiens)
Assay: T-type calcium channel voltage-clamp assay, Cav3.1
Details: read-out: Cav 3.1 IC50
Experimental endpoint: pIC50
Please keep in mind that pIC50 is minus log10 of the molar concentration; only the number is needed.

Examples with answers:
{"columns": ["Cpd smiles", "pIC50"],
 "data": [
  ["CCSc1ncccc1C(=O)N1CCN(c2cc(C(C)(C)C)cc(C(C)(C)C)c2)CC1", 6.02],
  ["CC(C)(C)c1cc(N2CCN(C(=O)c3ccc(F)c(C(F)(F)F)c3)CC2)cc(C(C)(C)C)c1", 6.17],
  ["CC(C)(C)C(=O)Nc1ccncc1C(=O)N1CCN(c2cc(C(C)(C)C)cc(C(C)(C)C)c2)CC1", 6.33],
  ["Cc1ccc(OCC(=O)N2CCN(c3cc(C(C)(C)C)cc(C(C)(C)C)c3)CC2)c(C)c1", 5.89],
  ["CCCSc1ncccc1C(=O)N1CCN(c2cc(C(C)(C)C)cc(C(C)(C)C)c2)CC1", 5.90]
]}

Now for the compound whose pIC50 we want.
Request: Determine from records and report pIC50 for CC(C)(C)c1cc(N2CCN(C(=O)c3ccc(F)cc3)CC2)cc(C(C)(C)C)c1
Result: 6.05

====

Measured inhibition at 30 µM values are reported for all entries that follow.
Target: Human Cav2.2 channels (Homo sapiens)
Construct: expressed in transfected cells
Assay: Block of Cav2.2 (N-type) channels expressed in HEK293 cells
Type: cell-based
Details: HEK293; read-out: Cav 2.2 % Inh @ 30 μM
Output should be the measured figure followed by the unit it is expressed in.

Examples with answers:
{"columns": ["Cpd smiles", "Test system", "Measurement"],
 "data": [
  ["CC(C)(C)c1cc(N2CCN(C(=O)c3ccccc3)CC2)cc(C(C)(C)C)c1", "Human Cav2.2 channels (Homo sapiens)", "103%"],
  ["CC(C)c1cc(C(=O)N2CCN(c3cc(C(C)(C)C)cc(C(C)(C)C)c3)CC2)c2cnn(C(C)C)c2n1", "Human Cav2.2 channels (Homo sapiens)", "83%"],
  ["CCSc1ncccc1C(=O)N1CCN(c2cc(C(C)(C)C)cc(C(C)(C)C)c2)CC1", "Human Cav2.2 channels (Homo sapiens)", "101%"]
]}

Request: Determine from records and report inhibition at 30 µM for CC(C)(C)c1cc(N2CCN(C(=O)c3ccncc3)CC2)cc(C(C)(C)C)c1
Result: 94%

Request: Determine from records and report inhibition at 30 µM for CC(C)c1cc(C(=O)N2CCN(c3cc(C(C)(C)C)cc(C(C)(C)C)c3)CC2)cs1
Result: 97%

Request: Determine from records and report inhibition at 30 µM for Cc1ccc(C(=O)N2CCN(c3cc(C(C)(C)C)cc(C(C)(C)C)c3)CC2)s1
Result: 101%

Request: Determine from records and report inhibition at 30 µM for CCc1cc(C(=O)N2CCN(c3cc(C(C)(C)C)cc(C(C)(C)C)c3)CC2)sc1C
Result: 88%

Request: Determine from records and report inhibition at 30 µM for CC(C)(C)c1cc(N2CCN(C(=O)c3cc(C4CC4)n[nH]3)CC2)cc(C(C)(C)C)c1
Result: 98%

Source: patent US20090270413A1
